Origin of measurements: paper PMC10133546

For each entry below, report its log10(AUC(0-inf)) value.
Assay: Pharmacokinetic study in rat plasma after oral administration of QJYQ (UHPLC-sMRM)
Assay type: in vivo, Sprague-Dawley rats
Conditions: male, Sprague-Dawley; rat plasma, oral QJYQ 3.15 g/kg, n = 8, mean ± SD; read-out: AUC(0-∞)
Method: Exion LC AD tandem Blueline 3500 triple quadrupole mass spectrometer (AB SCIEX, Framingham, MA, United States) was used to thirty-three compounds in rat plasma. […] The whole detailed parameters of sMRM were obtained in Supplementary Table S1. […] All the pharmacokinetic parameters were calculated using the DAS 1.0 software (Drug and Statistics 1.0, Medical College of Wannan, China). […] All data are expressed as mean ± standard deviation (SD). […]
Parameter value (number): base-10 log of AUC(0-inf) in ng·h/mL.

Q: Report measured log10(AUC(0-inf)); entry is O=C(O)C=Cc1ccc(O)cc1
Result: 2.59

Q: Please list log10(AUC(0-inf)) recorded for the compound COc1c(O)cc(O)c2c(=O)cc(-c3ccccc3)oc12
Result: 2.46

Q: Please list log10(AUC(0-inf)) recorded for the compound O=C(O)c1ccc(O)c(O)c1
Result: 1.61

Q: Item COc1ccc(/C=C/C(=O)O)cc1O : provide log10(AUC(0-inf))
Result: 2.55

Q: Give log10(AUC(0-inf)) for O=C(O)[C@H]1O[C@@H](Oc2cc3oc(-c4ccccc4)cc(=O)c3c(O)c2O)[C@H](O)[C@@H](O)[C@@H]1O
Result: 4.70

Q: // fetch log10(AUC(0-inf)) given entry CC1(C)[C@@H](O[C@H]2O[C@H](C(=O)O)[C@@H](O)[C@H](O)[C@H]2O[C@@H]2O[C@H](C(=O)O)[C@@H](O)[C@H](O)[C@H]2O)CC[C@]2(C)[C@H]3C(=O)C=C4[C@@H]5C[C@@](C)(C(=O)O)CC[C@]5(C)CC[C@@]4(C)[C@]3(C)CC[C@@H]12
Result: 3.05

###

Assay: Stability of analytes in rat plasma (auto-sampler, freeze-thaw, room temperature, long-term)
Settings: 50 ng/mL, three freeze-thaw cycles
Hi there, I'd appreciate the recorded Freeze thaw cycles Accuracy (%) for every entry that follows.
Reply numerically in %, unit not repeated.

Q: Output measured Freeze thaw cycles Accuracy (%) for this item: CC(C)(O[C@@H]1O[C@H](CO)[C@@H](O)[C@H](O)[C@H]1O)[C@@H]1CC[C@](O)(CO)[C@H]2CC(=O)[C@@](C)(O)[C@@H]2C1 [atractyloside A]
Result: 84.6

Q: Please report the measured Freeze thaw cycles Accuracy (%) for COc1ccc(/C=C/C(=O)O)cc1O [isoferulic acid]
Result: 95.7

Q: State its Freeze thaw cycles Accuracy (%) for this molecule: COc1ccc([C@@H]2CC(=O)c3c(O)cc(O[C@@H]4O[C@H](CO[C@@H]5O[C@@H](C)[C@H](O)[C@@H](O)[C@H]5O)[C@@H](O)[C@H](O)[C@H]4O)cc3O2)cc1O [hesperidin]
Result: 85.4

Q: Output Freeze thaw cycles Accuracy (%) of O=C(/C=C/c1ccc(O)c(O)c1)O[C@H]1[C@H](O)C[C@](O)(C(=O)O)C[C@H]1O [cryptochlorogenic acid]
Result: 86.6

Q: Hello, please tell me recorded Freeze thaw cycles Accuracy (%) for this one: C[C@@]12C[C@@]3(O)O[C@@H](O1)[C@]1(COC(=O)c4ccccc4)[C@H]3C[C@@]12O[C@@H]1O[C@H](CO)[C@@H](O)[C@H](O)[C@H]1O [paeoniflorin]
Result: 94.1

Q: Report measured Freeze thaw cycles Accuracy (%); entry is COc1cc(/C=C/C(=O)O)ccc1O [ferulic acid]
Result: 98.3

Q: Using the record for CC(C)=CCC[C@](C)(O)[C@H]1CC[C@]2(C)[C@@H]1[C@H](O)C[C@@H]1[C@@]3(C)CC[C@H](O)C(C)(C)[C@@H]3[C@@H](O[C@@H]3O[C@H](CO)[C@@H](O)[C@H](O)[C@H]3O[C@@H]3O[C@H](CO)[C@@H](O)[C@H](O)[C@H]3O)C[C@]12C [ginsenoside Rf] , state its measured Freeze thaw cycles Accuracy (%).
Result: 88.0

###

Assign −80°C for 1month Accuracy (%) to each entry below.
Test: Stability of analytes in rat plasma (auto-sampler, freeze-thaw, room temperature, long-term)
Conditions: 50 ng/mL, −80°C 1 month
Please state the figure in %; there is no need to write the unit.

Q: Answer with reported −80°C for 1month Accuracy (%) of CC(C)=CCC[C@](C)(O)[C@H]1CC[C@]2(C)[C@@H]1[C@H](O)C[C@@H]1[C@@]3(C)CC[C@H](O)C(C)(C)[C@@H]3[C@@H](O[C@@H]3O[C@H](CO)[C@@H](O)[C@H](O)[C@H]3O[C@@H]3O[C@H](CO)[C@@H](O)[C@H](O)[C@H]3O)C[C@]12C [ginsenoside Rf]
Result: 89.6

Q: Please list −80°C for 1month Accuracy (%) recorded for the molecule COc1cc(/C=C/C(=O)O)ccc1O
Result: 90.9

Q: Read the entry O=C(/C=C/c1ccc(O)c(O)c1)O[C@@H]1C[C@](O)(C(=O)O)C[C@@H](O)[C@H]1O and write its reported −80°C for 1month Accuracy (%).
Result: 115.0

Q: Please supply the value of reported −80°C for 1month Accuracy (%) for the item O=C(/C=C/c1ccc(O)c(O)c1)O[C@H]1[C@H](O)C[C@](O)(C(=O)O)C[C@H]1O
Result: 107.0

Q: Supply measured −80°C for 1month Accuracy (%) of O=c1cc(-c2ccccc2)oc2cc(O)c(O)c(O)c12 in your reply.
Result: 90.6

Q: Report measured −80°C for 1month Accuracy (%); entry is O=C(O)[C@H]1O[C@@H](Oc2cc3oc(-c4ccc(O)cc4)cc(=O)c3c(O)c2O)[C@H](O)[C@@H](O)[C@@H]1O
Result: 92.2

###

Assignment: determine reported Autosampler for 24 h Accuracy (%) for the given compounds.
Test: Stability of analytes in rat plasma (auto-sampler, freeze-thaw, room temperature, long-term)
Details: 100 ng/mL, autosampler 24 h
Provide only the numeric value, understood in %.

Q: Give Autosampler for 24 h Accuracy (%) for the following compound: O=C1C[C@@H](c2ccc(O)cc2)Oc2cc(O)cc(O)c21
Result: 99.5

Q: Give the value of Autosampler for 24 h Accuracy (%) reported for the following: CC(C)=CCC[C@](C)(O)[C@H]1CC[C@]2(C)[C@@H]1[C@H](O)C[C@@H]1[C@@]3(C)CC[C@H](O)C(C)(C)[C@@H]3[C@@H](O[C@@H]3O[C@H](CO)[C@@H](O)[C@H](O)[C@H]3O[C@@H]3O[C@H](CO)[C@@H](O)[C@H](O)[C@H]3O)C[C@]12C [ginsenoside Rf]
Result: 88.2

Q: Respond only with Autosampler for 24 h Accuracy (%) recorded for O=C(O)[C@H]1O[C@@H](Oc2cc(O)c3c(=O)cc(-c4ccc(O)cc4)oc3c2)[C@H](O)[C@@H](O)[C@@H]1O [apigenin-7-O-glucuronide]
Result: 94.1

Q: Please give measured Autosampler for 24 h Accuracy (%) of the following entry: O=C(O)[C@H]1O[C@@H](Oc2cc3oc(-c4ccc(O)cc4)cc(=O)c3c(O)c2O)[C@H](O)[C@@H](O)[C@@H]1O
Result: 109.0

Q: Identify measured Autosampler for 24 h Accuracy (%) corresponding to C[C@@]12C[C@@]3(O)O[C@@H](O1)[C@]1(COC(=O)c4ccccc4)[C@H]3C[C@@]12O[C@@H]1O[C@H](CO)[C@@H](O)[C@H](O)[C@H]1O
Result: 111.0

Q: Return reported Autosampler for 24 h Accuracy (%). Input compound: COc1c2c(cc3oc(CO)cc(=O)c13)O[C@H](C(C)(C)O)C2
Result: 100.0

Q: Specify measured Autosampler for 24 h Accuracy (%) for COc1ccc(-c2coc3cc(O[C@@H]4O[C@H](CO)[C@@H](O)[C@H](O)[C@H]4O)ccc3c2=O)cc1 .
Result: 94.4

Q: For the compound O=C1C[C@@H](c2ccc(O[C@@H]3O[C@H](CO)[C@@H](O)[C@H](O)[C@H]3O)cc2)Oc2cc(O)ccc21 , give its measured Autosampler for 24 h Accuracy (%) value.
Result: 94.1

Q: Provide only the value of recorded Autosampler for 24 h Accuracy (%) for COC(=O)C1=CO[C@@H](O[C@@H]2O[C@H](CO)[C@@H](O)[C@H](O)[C@H]2O)[C@H]2[C@@H]1C(=O)C[C@@H]2C
Result: 89.7

Q: Return Autosampler for 24 h Accuracy (%) (reported value) for this compound: O=C(/C=C/c1ccc(O)c(O)c1)O[C@H]1[C@H](O)C[C@](O)(C(=O)O)C[C@H]1O
Result: 92.7

###

Assay: Pharmacokinetic study in rat plasma after oral administration of QJYQ (UHPLC-sMRM)
Assay type: in vivo, Sprague-Dawley rats
Conditions: male, Sprague-Dawley, rat, in vivo, po, 3.15 g/kg
Measurement type: AUC(0-t)
The answer consists of two parts: a number and, after it, its unit.

Q: Please look at this compound and report its AUC(0-t): O=C1C[C@@H](c2ccc(O[C@@H]3O[C@H](CO)[C@@H](O)[C@H](O)[C@H]3O)cc2)Oc2cc(O)ccc21
Result: 16.3 ng·h/mL
